System: NCI-H460
experiment description: NCI tumour cell line growth inhibition, 48 h
The source made the active and inactive calls. Cut-off read from the data, not from the text of the source: active = GI50 up to about 1.1 µM and inactive = higher.
Reported GI50 values follow for various compounds

I'd like to know its GI50. The compound in question is O=c1onc2n1-c1cc(Cl)ccc1C(=S)N1CSCC21 (centres undefined)
> 100 µM (inactive)

I'd like to know its GI50. The compound in question is "N#Cc1nc(-c2ccc(-c3nc(C#N)c(N)o3)cc2)oc1N"
> 10 µM (inactive)

----------
Tested on: T47D
experiment description: NCI tumour cell line growth inhibition, 48 h
Activity calls are given as the source filed them. Rule as the data show it: active = GI50 up to about 1.1 µM and inactive = higher.
Bench note: report the call from label 1 = active, label 0 = inactive

- compound: "CCOC(=O)CCC(NC(=O)c1ccc(OCc2ccc3nc(-c4ccccc4)c(Cl)nc3c2)cc1)C(=O)OCC (stereo not drawn)"
  tested system: "T47D"
  category label: "label 0"
- compound: "COC(=O)C1(Cc2ccc3c(c2)CCC3)Cc2cc3c(cc2C1)CCC3"
  tested system: "T47D"
  category label: "label 0"
- compound: "CC(=O)Oc1c2ccsc2c(OC(C)=O)c2ccsc12"
  tested system: "T47D"
  category label: "label 0"
- compound: "CSc1cnc2ccccc2c1SC1CN(Cc2ccccc2)c2ccccc2C1=O (stereo not drawn)"
  tested system: "T47D"
  category label: "label 0"
- compound: "CCOC(=O)C(SCCO)C(C(=O)OCC)n1cnc2c(=O)[nH]c(NC(C)=O)nc21 (stereo not drawn)"
  tested system: "T47D"
  category label: "label 0"
- compound: "CN(C)c1ccc(/C=N/c2ccc(Oc3ccc(Cl)cc3)c(Cl)c2)cc1"
  tested system: "T47D"
  category label: "label 0"

Short answer needed: outcome of this test for "Cc1ccc([N+](=O)[O-])c2c(NCCC[N+](C)(C)[O-])c3ccccc3nc12" ?
label 1

Short answer needed: outcome of this test for "CN1C(C(=O)Nc2ccccn2)=C(O)c2ccccc2S1(=O)=O" ?
label 0

Short answer needed: outcome of this test for "N#Cc1nc(-c2ccc(-c3nc(C#N)c(N)o3)cc2)oc1N" ?
label 0

Short answer needed: outcome of this test for CCCN(CCCC(NC(C)=O)C(=O)NCc1ccccc1)C(=O)N(CCCl)N=O (stereo not drawn) ?
label 0

Short answer needed: outcome of this test for "CNC(=O)N(CCC#N)CCCN(C(=O)N(C)C)c1ccccc1" ?
label 0

----------
Tested on: U-251
experiment description: NCI tumour cell line growth inhibition, 48 h
Active and inactive are the calls of the source. No stated cut-off is given here; in the data, active = GI50 up to about 1.1 µM and inactive = higher.
Bench note: report the call from label 1 = active, label 0 = inactive

- compound: "Cc1ccc(-n2cc(-c3ccc(Cl)cc3)c3c(NN)ncnc32)cc1"
  category label: "label 0"
- compound: "CCN(CCCl)CCCNc1c2ccccc2nc2ccc(OC)cc12"
  category label: "label 1"
- compound: "C/C(CN1C(=O)c2ccccc2C1=O)=N\\NS(=O)(=O)c1ccc(C)cc1"
  category label: "label 0"
- compound: "COc1ccc2oc3c(OC)c(OC)c(OC)cc3c(=O)c2c1"
  category label: "label 0"
- compound: "Cn1c2c3c(F)c(F)ccc3nc-2cc2ccccc21"
  category label: "label 0"
- compound: "N=C(N)N1CCC(N2CCOCC2)CC1"
  category label: "label 0"
- compound: "O=C(c1ccccc1)c1ccc(-n2c3ccccc3c3ccc4c(c32)C(=O)C=CC4=O)cc1"
  category label: "label 0"
- compound: "c1ccc(-c2nc(-c3ccccc3SSc3ccccc3-c3nc(-c4ccccc4)nn3-c3ccccc3)n(-c3ccccc3)n2)cc1"
  category label: "label 0"

Short answer needed: outcome of this test for "Cc1cc(C)c2c(n1)S(=O)(=O)N(CCCN1CCN(c3cccc(C(F)(F)F)c3)CC1)C(C(=O)c1ccccc1)=C2O" ?
label 0

Short answer needed: outcome of this test for CCC12C=CCN3CCC4(C(=C(C(=O)OC)[C@@H]1O)Nc1ccccc14)C32 (stereo not given in full) ?
label 0
